System: CAKI-1
Assay: NCI tumour cell line growth inhibition, 48 h
Activity calls are given as the source filed them. Rule as the data show it: active = GI50 up to about 1.1 µM and inactive = higher.
Hello, when you answer, please use one of the following outcomes: y (active), n (inactive)

MOLECULE	TARGET OR SYSTEM	ANSWER LABEL
N=S(c1ccccc1[N+](=O)[O-])c1ccccc1[N+](=O)[O-]	CAKI-1	n
CCOc1cc2c(NCCCN(CCO)CCO)ncnc2c(OCC)c1OCC	CAKI-1	n
N#C/C(=C1\OC(=N)C(c2ccc(Cl)cc2)=C1O)c1ccc(Cl)cc1	CAKI-1	n
COC(=O)OCC1OC(N2C(=O)NC(=O)C(Br)C2N=[N+]=[N-])CC1OC(=O)OC (stereo not drawn)	CAKI-1	n
Brc1ccc(-c2ccc(-c3ccc(-c4ccc(Br)s4)s3)s2)s1	CAKI-1	n

Here's the next entry for you.
input: Fill in: this test's call for "COc1ccc(-c2[nH]c3ccccc3c2CCNS(=O)(=O)c2ccc(C)cc2)cc1" is ___
output: n

The values you see were collected from ChEMBL document CHEMBL1201862.
